What 90% Neutralization MRC-9 (hCMV VR1814) was measured for each of the following?
- Assay system: hCMV UL128, UL130 and UL131A co-expressed in HEK293T cells (human cytomegalovirus, UniProt P16837 1-171; P16772 1-214)
- Sequence (P16837 whole entry, chain 1 of 2): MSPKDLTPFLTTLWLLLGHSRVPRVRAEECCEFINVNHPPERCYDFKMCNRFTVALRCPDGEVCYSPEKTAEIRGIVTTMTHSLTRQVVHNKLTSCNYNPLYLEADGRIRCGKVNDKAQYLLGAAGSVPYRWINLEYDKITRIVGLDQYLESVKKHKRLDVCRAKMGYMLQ
- Sequence (P16772 whole entry, chain 2 of 2): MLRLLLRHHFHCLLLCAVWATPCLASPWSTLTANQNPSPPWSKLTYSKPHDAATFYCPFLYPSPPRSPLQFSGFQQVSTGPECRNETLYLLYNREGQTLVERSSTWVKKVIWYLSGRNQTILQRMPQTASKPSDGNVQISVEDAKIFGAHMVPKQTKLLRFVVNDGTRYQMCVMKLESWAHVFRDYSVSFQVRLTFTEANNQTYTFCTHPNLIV
- Assay info: cell-based or functional assay

Sure, the documented 90% Neutralization MRC-9 (hCMV VR1814) for 2C12 (antibody, V domains shown, human IgG mAb; also called 2C12-biotin) VH: QITLRESGPTLVKPTQTLTLTCTFSGFSLNTNGVGVGWIRQPPGKALEWLALIYWNGNEGYSPSLKSRLTITKDTSKNQVVLTMTNMDPVDTATYYCVHWPQGLTTVTRLAFDIWGQGTMVTVSS VL: QSALTQPRSVSGSPGQSVTISCTGTTSDVGRYNFVSWYQQHPGKAPKLLMYDVSQRPSGVPSRFSGSKSGNTASLTISGLQAEDEAVFYCCSYAGGNFFSYVFGTGTKVTVL is > 10 µg/mL

Sure, the documented 90% Neutralization MRC-9 (hCMV VR1814) for 9I6 (antibody, V domains shown, human IgG mAb; also called 9I6-biotin; 916) VH: EVQLVQSGAEVKKPGESLKISCRESGDTFPAYWIAWVRQMPGKGLEWMGIIYPIDSETTYSPSFQGQVTISADKSINTAYLQWSSLKASDSAIYYCARGTSTGLREAFHIWGQGTMVTVSS VL: DVVMTQSPLSLAVTLGQPAYISCRSSQSLGYSDGNTYLNWFQQRPGQSPRRLIYEVSNRDSGVPDRFSGSGSGTDFTLKISRVEAEDVGTYYCMQGTHWPPMCSFGQGTKLEIK is > 10 µg/mL

Sure, the documented 90% Neutralization MRC-9 (hCMV VR1814) for 8J16 (antibody, V domains shown, human IgG mAb; also called 8J16-biotin) VH: QVQLQESGPGLVKPSETLSLTCSVSGGFTSSYYWSWIRQAPGKGLEWIGYVYYGESTDYNPSLKSRATISIDTSKNQFSLKLSSVTAADTAVYYCAREVDKRGFDYWGQGALVTVSS VL: EIVLTQSPGTLSLSPGERATLSCRASQSVSGGYLAWYQQEPGQAPRLVIYGASSRATGIPDRFSASGSGTDFTLTITRLEPEDFAVYYCQQYGRTPLTFGGGTKVEIK is > 10 µg/mL
